system_name: NS3-NS5 interaction (NS3 f.l. binding to coated 6His-NS5_270–900) (Dengue virus type 2, UniProt P14340)
assay_details: ELISA-based NS3-NS5 interaction assay
Set-up: species or system DENV-2
measurement_setup: analogues of hit 3, in-house synthesized hit 3 as control; 50% inhibition of NS3-NS5 binding in ELISA; read-out: In vitro activity IC50
Description: Nunc Maxisorp microplates (Thermo Fisher Scientific) were coated with 400 ng/well of 6His-NS5_270–900, or GST protein as a control, in PBS for 3 h at 37 °C and then blocked with 5% (wt/v) bovine serum albumin (BSA, Merck Life Science) in PBS overnight at 4 °C. Blocked wells were incubated at room temperature (RT) for 2 h with increasing amounts of NS3 f.l. or GST–NS3_172–618. 6His-NS5_270–900-coated plates were also incubated with increasing concentration of GST, as a control. […]
Hi! Just check whether IC50 is below 100 µM. Below gives Y, equal or above gives N.

Solved entries:
{"mol_smiles": "CN(C)c1ccc(NC(=S)NNC(=O)c2ccccc2O)cc1", "classification": "Y"}
{"mol_smiles": "Cc1ccc(NC(=S)NNC(=O)c2ccccc2O)cc1", "classification": "Y"}
{"mol_smiles": "Cc1ccc(NC(=S)NNC(=O)c2ccc(C)cc2)cc1", "classification": "N"}
{"mol_smiles": "CC(C)(C)c1ccc(NC(=S)NNC(=O)c2ccccc2O)cc1", "classification": "Y"}

Alright, here's another compound for you.
*Q* Bench note: check whether Cc1ccc(NC(=S)NNC(=O)c2ccc(C#N)cc2)cc1 shows IC50 below 100 µM
*A* N

---

system_name: NS3-NS5 interaction (NS3 f.l. binding to coated 6His-NS5_270–900) (Dengue virus type 2, UniProt P14340)
assay_details: ELISA-based NS3-NS5 interaction assay
Design: species or system DENV-2
measurement_setup: selected hits; concentration that decreased the NS3-NS5 binding by 50% in ELISA; read-out: In vitro activity IC50
measure_name: pIC50
Kindly note that pIC50 refers to -log10 of the concentration in mol/L and answer with the value alone.

See these solved cases before continuing.
{"molecule": "O=C(CCc1ccccn1)Nc1ccc2[nH]nnc2c1 [Hit 44]", "pIC50": 4.11}
{"molecule": "Cc1ccc(C(=O)Nc2cc(-c3cccc(F)c3F)n[nH]2)c(=O)[nH]1 [Hit 4]", "pIC50": 4.73}
{"molecule": "N#Cc1nc2c(-c3nc4ccccc4[nH]3)c(N)n(Cc3ccco3)c2nc1C#N [Hit 47]", "pIC50": 4.77}
{"molecule": "N=c1c2cnn(-c3ccccc3)c2ncn1NC(=S)Nc1ccccc1 [Hit 15]", "pIC50": 3.91}

The record that follows has no pIC50 shown yet.
*Q* Check the records and state pIC50 for O=C(NCc1ncc(-c2ccccc2)[nH]1)Nc1ccncc1F [Hit 30]
*A* 4.35

---

System: DENV-2 NGC strain
assay_details: Plaque reduction assay (PRA) in Vero cells
Type: cell-based
measurement_setup: best analogues of hit 3, in-house synthesized hit 3 as control; PRA in Vero cells, NGC strain; read-out: Antiviral activity EC50
Items are presented alongside their recorded EC50.
Your answer is read as nM, so omit the unit and give the number.

See these solved cases before continuing.
{"compound": "CN(C)c1ccc(NC(=S)NNC(=O)c2ccccn2)cc1 [Compound 69]", "measure_name": "EC50", "meas_value": 12400}
{"compound": "Cc1ccc(NC(=S)NNC(=O)c2ccc(C(C)(C)C)cc2)cc1 [Compound 72]", "measure_name": "EC50", "meas_value": 2800}

The record that follows has no EC50 shown yet.
*Q* Check the records and state EC50 for Cc1ccc(NC(=S)NNC(=O)c2ccccn2)cc1 [Compound 64]
*A* 2100

---

Test system: DENV-2 NGC strain
assay_details: Plaque reduction assay (PRA) in Vero cells
Assay type: cell-based
measurement_setup: selected hits; ratio between CC50 and EC50
measure_name: SI (selectivity index)

See these solved cases before continuing.
{"compound": "Cc1ccc(NC(=S)NNC(=O)c2ccccc2O)cc1 [Hit 3]", "meas_value": ">130"}
{"compound": "N#Cc1nc2c(-c3nc4ccccc4[nH]3)c(N)n(Cc3ccco3)c2nc1C#N [Hit 47]", "meas_value": ">5"}
{"compound": "O=C(CCc1ccccn1)Nc1ccc2[nH]nnc2c1 [Hit 44]", "meas_value": ">1"}

*Q* Check the records and state SI (selectivity index) for Cc1nc(NC(=O)c2ccc(C(N)=O)cc2)sc1SCC#N [Hit 6]
*A* >3

---

system_name: NS5-RdRp (NHS-NS5_270–900) (Dengue virus type 2, UniProt P14340)
measure_name: pKd
Kindly note that pKd refers to -log10 of the concentration in mol/L and answer with the value alone.

*Q* With NS5-RdRp (NHS-NS5_270–900) (Dengue virus type 2, UniProt P14340) as the test system, provide measured pKd for this molecule: Cc1ccc(NC(=S)NNC(=O)c2ccccc2O)cc1
*A* 4.54

---

Items are presented alongside their recorded SI (selectivity index).
Test system: DENV-2 NGC strain
assay_details: Plaque reduction assay (PRA) in Vero cells
Assay type: cell-based
measurement_setup: selected hits; ratio between CC50 and EC50
Give a plain numeric answer without units written out.

{"molecule": "Cc1ccc(C(=O)Nc2cc(-c3cccc(F)c3F)n[nH]2)c(=O)[nH]1 [Hit 4]", "SI (selectivity index)": 1}

The record that follows has no SI (selectivity index) shown yet.
*Q* Check the records and state SI (selectivity index) for NC(=O)COc1ccc(CNC(=O)Nc2ccc(Cl)cc2)cc1 [Hit 29]
*A* 1

---

system_name: NS3-NS5 interaction (NS3 f.l. binding to coated 6His-NS5_270–900) (Dengue virus type 2, UniProt P14340)
assay_details: ELISA-based NS3-NS5 interaction assay
Set-up: species or system DENV-2
measurement_setup: analogues of hit 3, in-house synthesized hit 3 as control; 50% inhibition of NS3-NS5 binding in ELISA; read-out: In vitro activity IC50
measure_name: pIC50
Kindly note that pIC50 refers to -log10 of the concentration in mol/L and answer with the value alone.

{"mol_smiles": "Cc1ccc(NC(=S)NNC(=O)c2ccccc2)cc1", "meas_value": 4.25}
{"mol_smiles": "Cc1ccc(NC(=S)NNC(=O)c2ccco2)cc1", "meas_value": 4.70}
{"mol_smiles": "CN(C)c1ccc(NC(=S)NNC(=O)c2ccco2)cc1", "meas_value": 4.94}
{"mol_smiles": "N#Cc1ccc(NC(=S)NNC(=O)c2ccccc2O)cc1", "meas_value": 4.39}
{"mol_smiles": "CCOC(=O)c1ccc(NC(=S)NNC(=O)c2ccccc2O)cc1", "meas_value": 4.51}

*Q* Check the records and state pIC50 for CN(C)c1ccc(NC(=S)NNC(=O)c2cccs2)cc1
*A* 4.60

*Q* Check the records and state pIC50 for O=C(NNC(=S)Nc1ccccc1)c1ccccc1O
*A* 4.08

*Q* Check the records and state pIC50 for Cc1ccc(NC(=S)NNC(=O)c2ccccc2C)cc1
*A* 4.54

---

As a worked illustration, we turn to CC50 data collected for Vero cells.
Answer with the value and then the unit.

{"compound": "CN(C)c1ccc(NC(=S)NNC(=O)c2ccccn2)cc1 [Compound 69]", "CC50": "72 µM"}

The record that follows has no CC50 shown yet.
*Q* Check the records and state CC50 for Cc1ccc(NC(=S)NNC(=O)c2ccc(C(C)(C)C)cc2)cc1 [Compound 72]
*A* 211 µM

---

Items are presented alongside their recorded CC50 at 72 h.
assay_details: MTT cytotoxicity assay
measurement_setup: African green monkey, Vero cells

See these solved cases before continuing.
{"mol_smiles": "N#Cc1nc2c(-c3nc4ccccc4[nH]3)c(N)n(Cc3ccco3)c2nc1C#N", "CC50 at 72 h": "> 250 µM"}
{"mol_smiles": "N=c1c2cnn(-c3ccccc3)c2ncn1NC(=S)Nc1ccccc1", "CC50 at 72 h": "> 250 µM"}
{"mol_smiles": "O=C(NCc1ncc(-c2ccccc2)[nH]1)Nc1ccncc1F", "CC50 at 72 h": "> 250 µM"}
{"mol_smiles": "NC(=O)COc1ccc(CNC(=O)Nc2ccc(Cl)cc2)cc1", "CC50 at 72 h": "35.7 µM"}
{"mol_smiles": "O=C(NCc1nc2ccccc2[nH]1)c1ccc2[nH]nnc2c1", "CC50 at 72 h": "> 250 µM"}
{"mol_smiles": "Cc1ccc(C(=O)Nc2cc(-c3cccc(F)c3F)n[nH]2)c(=O)[nH]1", "CC50 at 72 h": "12.7 µM"}
{"mol_smiles": "N#Cc1cn[nH]c1NCc1ccc(OCc2ccccc2)cc1O", "CC50 at 72 h": "> 250 µM"}
{"mol_smiles": "O=C(CCc1ccccn1)Nc1ccc2[nH]nnc2c1", "CC50 at 72 h": "> 100 µM"}

*Q* Check the records and state CC50 at 72 h for Cc1ccc(NC(=S)NNC(=O)c2ccccc2O)cc1
*A* > 250 µM

*Q* Check the records and state CC50 at 72 h for Cc1nc(NC(=O)c2ccc(C(N)=O)cc2)sc1SCC#N
*A* > 250 µM
